target: Nucleoprotein (Lymphocytic choriomeningitis virus (strain Armstrong)) (UniProt P09992); assay: qHTS for Inhibitors of the Functional Ribonucleoprotein Complex (vRNP) of Lymphocytic Choriomeningitis Arenaviruses (LCMV): LCMV Primary Screen - GLuc reporter signal (AID 1347086); details: LCMV minigenome vRNP cell assay, Gaussia luciferase reporter; series mostly up to 57.5 µM; further: nearly all actives have a fitted effect of over 70% in size
Sequence (P09992 whole entry, looked up): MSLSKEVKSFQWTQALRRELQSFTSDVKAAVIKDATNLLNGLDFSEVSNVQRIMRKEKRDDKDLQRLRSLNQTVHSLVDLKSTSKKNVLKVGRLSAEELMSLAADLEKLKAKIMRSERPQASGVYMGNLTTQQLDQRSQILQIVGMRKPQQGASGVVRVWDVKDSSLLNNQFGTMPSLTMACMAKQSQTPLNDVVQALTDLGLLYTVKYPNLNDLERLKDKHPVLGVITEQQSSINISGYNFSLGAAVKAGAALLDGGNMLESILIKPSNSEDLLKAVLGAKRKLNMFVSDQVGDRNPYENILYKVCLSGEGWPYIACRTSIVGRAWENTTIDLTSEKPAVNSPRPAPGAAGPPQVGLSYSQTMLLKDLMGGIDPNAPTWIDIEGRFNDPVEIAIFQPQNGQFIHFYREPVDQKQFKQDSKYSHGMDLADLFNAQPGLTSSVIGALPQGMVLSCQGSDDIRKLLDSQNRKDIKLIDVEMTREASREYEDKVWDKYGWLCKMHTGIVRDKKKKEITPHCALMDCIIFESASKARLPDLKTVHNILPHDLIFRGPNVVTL
Records with an inconclusive call do not appear. The source made the active and inactive calls. The call rests on the fitted dose curve.
A correct response names exactly one class from yes = active, no = inactive

The following compounds have reported results that may help.
{"compound": "CC1=C(C(=O)O)N2C(=O)[C@@H](NC(=O)C(N)C3=CCC=CC3)[C@H]2SC1 (stereo not given in full)", "assayTarget": "Nucleoprotein (Lymphocytic choriomeningitis virus (strain Armstrong)) (UniProt P09992)", "groupLabel": "no"}
{"compound": "COc1ccc(CN2CCc3cc(OC)c(OC)cc3C2)cc1O", "assayTarget": "Nucleoprotein (Lymphocytic choriomeningitis virus (strain Armstrong)) (UniProt P09992)", "groupLabel": "no"}
{"compound": "C[C@]12CCC3C(C[C@@H](O)[C@H]4C[C@@H](O)CC[C@]34C)C1CC[C@@H]2O (stereo not given in full)", "assayTarget": "Nucleoprotein (Lymphocytic choriomeningitis virus (strain Armstrong)) (UniProt P09992)", "groupLabel": "no"}

In this assay, the call recorded for O=C(O)C(O)Cc1ccc(O)c(O)c1 (stereo not given) was what? no

Entry N#CC(=C1Nc2ccccc2S1)c1ccnc(OCc2ccc(CN3CCOCC3)cc2)n1 please yes

---

experiment: Validation screen for inhibitors of Lassa infection (AID 463096); conditions: Lassa virus infection, cell-based; series mostly up to 46.1 µM
Results filed as inconclusive are left out. Active and inactive are the calls of the source. Calls come from the whole dose curve.
A correct response names exactly one class from true for active, false for inactive

The following compounds have reported results that may help.
{"compound": "COc1cc2c(CCNC(C)=O)c[nH]c2cc1O", "groupLabel": "false"}
{"compound": "COc1cc2c(CCNC(C)=O)c[nH]c2cc1Cl", "groupLabel": "false"}
{"compound": "COc1ccc(-n2nc(C(F)(F)F)cc2-c2ccc(Cl)cc2)cc1", "groupLabel": "false"}
{"compound": "C/C(=C\\c1ccc(C(=O)O)cc1)c1ccc2c(c1)C(C)(C)CCC2(C)C", "groupLabel": "false"}
{"compound": "O=C(O)c1cc(=O)c2c(Cl)cc(Cl)cc2[nH]1", "groupLabel": "false"}
{"compound": "COc1cc(CCN)ccc1O", "groupLabel": "false"}
{"compound": "O=C1CCC(c2ccc(-n3ccnc3)cc2)=NN1", "groupLabel": "false"}
{"compound": "CC(C)NCC(O)COc1ccc(CC(N)=O)cc1 (stereo not given)", "groupLabel": "false"}

In this assay, the call recorded for Cc1ccc(S(=O)(=O)N[C@@H](Cc2ccccc2)C(=O)CCl)cc1 was what? true

Entry COCc1nc2c([nH]1)c(=O)n(C)c(=O)n2CC(C)C please false

Entry CC1CNCCN1S(=O)(=O)c1cccc2cnccc12 (stereo not given) please false

Entry NC1(C(=O)O)CC1 please false

---

target: Nucleoprotein (Lymphocytic choriomeningitis virus (strain Armstrong)) (UniProt P09992); assay: qHTS for Inhibitors of the Functional Ribonucleoprotein Complex (vRNP) of Lymphocytic Choriomeningitis Arenaviruses (LCMV): LCMV Primary Screen - GLuc reporter signal (AID 1347086); conditions: LCMV minigenome vRNP cell assay, Gaussia luciferase reporter; series mostly up to 57.5 µM; further: nearly all actives have a fitted effect of over 70% in size
Inconclusive results are not listed. Activity calls are given as the source filed them. Calls come from the whole dose curve.
A correct response names exactly one class from Y = active, N = inactive

The following molecules have reported results that may help.
{"molecule": "C[C@H](NC(=O)/C(C#N)=C/c1ccc(O)c(O)c1)c1ccccc1", "assayTarget": "Nucleoprotein (Lymphocytic choriomeningitis virus (strain Armstrong)) (UniProt P09992)", "groupLabel": "N"}
{"molecule": "COc1cc2c(c3oc(-c4ccccc4)cc(=O)c13)C=CC(C)(C)O2", "assayTarget": "Nucleoprotein (Lymphocytic choriomeningitis virus (strain Armstrong)) (UniProt P09992)", "groupLabel": "N"}
{"molecule": "O=c1onc2cnc3ccccc3n12", "assayTarget": "Nucleoprotein (Lymphocytic choriomeningitis virus (strain Armstrong)) (UniProt P09992)", "groupLabel": "N"}
{"molecule": "Cc1c(-c2ccc(O)cc2)n(Cc2ccc(OCCN3CCCCCC3)cc2)c2ccc(O)cc12", "assayTarget": "Nucleoprotein (Lymphocytic choriomeningitis virus (strain Armstrong)) (UniProt P09992)", "groupLabel": "N"}
{"molecule": "C[C@H]1CC2C3CCC4=CC(=O)C=C[C@]4(C)[C@@]3(Cl)[C@@H](O)C[C@]2(C)[C@@]1(O)C(=O)CO (stereo partly specified)", "assayTarget": "Nucleoprotein (Lymphocytic choriomeningitis virus (strain Armstrong)) (UniProt P09992)", "groupLabel": "N"}

In this assay, the call recorded for CN(C)c1ccc(-c2nc3ncc(Cl)c(N4CCN(CC(=O)Nc5nccs5)CC4)c3[nH]2)cc1 was what? N

Entry CCCn1c(=O)c(C)cn2nc(N)nc12 please N

Entry Cc1ccc2c(c1)C(N1CCN(C)CC1)=Nc1cccnc1N2 please N

Entry COc1cc(C)c(C(=O)Oc2cc(C)c(C(=O)O)c(O)c2C)c(O)c1C please N

Entry c1cncc([C@@H]2CCCCN2)c1 please N

Entry Nc1ncnc2nc(-c3ccc(N4CCOCC4)nc3)cc(-c3cccc(Br)c3)c12 please N

---

assay: HEK293 18hr Apoptosis Induction qHTS against the NCATS CANVASS Library (AID 1347357); settings: HEK293 caspase-3/7 Caspase-Glo luminescence; series mostly up to 46.1 µM; further: potency means the concentration at half of the fitted maximal effect
Records with an inconclusive call do not appear. The source made the active and inactive calls. Calls follow the shape of the dose curve; as a rule, active = well fitted activation curve with a large enough effect; inconclusive = small, poorly fitted or top-dose-only effect; inactive = flat fitted curve, though single readings scatter.
quantity: Potency

Previously resolved entries follow.
{"compound": "CCN1C[C@]2(C)CC[C@@H](O)[C@]34C1[C@H](C[C@H]23)C12CCC(CC14)[C@](O)(CO)[C@H]2O (some centres undefined)", "quantity": "Potency", "result": "inactive"}
{"compound": "CCC[C@H]1CC[C@H]2[C@H](C)CCC[C@H]2N1", "quantity": "Potency", "result": "inactive"}
{"compound": "CO[C@@H](/C=C/CC/C=C/C(=O)O)[C@@H](O)[C@H](C)[C@@H](O)/C(C)=C/[C@H](C)C(=O)CCCC1CC(=O)NC(=O)C1", "quantity": "Potency", "result": "inactive"}
{"compound": "C[C@@H]1CC[C@@H](c2ccoc2)N2C[C@@]3(CC[C@@H]12)CS[C@@]1(CC[C@H]2[C@H](C)CC[C@@H](c4ccoc4)N2[C@@H]1O)C3", "quantity": "Potency", "result": "8.33 µM (active)"}
{"compound": "CCCC[C@@H]1CC[C@H]2CCCC(CCC)N12 (some centres undefined)", "quantity": "Potency", "result": "inactive"}

Return reported Potency; argument: CCN1C[C@]2(C)CC[C@H](O)[C@]34C1C(C[C@H]23)[C@@]12CC[C@H](CC14)[C@](O)(COC(=O)c1ccc(OC)c(OC)c1)[C@H]2O (some centres undefined) inactive

Entry COc1ccc2c3c([nH]c2c1)C(C)=NCC3 please inactive

Entry C=C1[C@@H](C)[C@H]2[C@H](Cc3ccccc3)NC(=O)[C@]23OC(=O)/C=C/[C@H](O)CCC[C@@H](C)C/C=C/[C@H]3[C@@H]1O please inactive

---

assay: U-118MG Cancer Cell Toxicity qHTS against the NCATS CANVASS Library (AID 1347351); settings: U-118MG viability, CellTiter-Glo luminescence, 72 h; series mostly up to 38.3 µM
Records with an inconclusive call do not appear. The source made the active and inactive calls. The call rests on the fitted dose curve; in most records, active means well fitted cell-killing curve with a large enough effect; inconclusive means small, poorly fitted or top-dose-only effect; inactive means flat fitted curve, though single readings scatter.
A correct response names exactly one class from true (active), false (inactive)

The following compounds have reported results that may help.
{"compound": "CN(C)Cc1c[nH]c2ccccc12", "groupLabel": "false"}
{"compound": "CCN1C[C@]2(C)CC[C@H](O)[C@]34C1C(C[C@H]23)[C@@]12CC[C@H](CC14)[C@](O)(COC(=O)c1ccc(OC)c(OC)c1)[C@H]2O (some centres not stated)", "groupLabel": "false"}
{"compound": "C[C@@H]1CC[C@@H](c2ccoc2)N2C[C@@]3(CC[C@@H]12)CS[C@@]1(CC[C@H]2[C@H](C)CC[C@@H](c4ccoc4)N2[C@@H]1O)C3", "groupLabel": "true"}
{"compound": "C[C@]12CC(O)C3[C@@H](CCC4C[C@@H](O)CC[C@@]43CO)[C@@]1(O)CCC2C1=CC(=O)OC1 (some centres not stated)", "groupLabel": "false"}
{"compound": "CNCCc1ccc(O)cc1", "groupLabel": "false"}
{"compound": "CO[C@@H](/C=C/CC/C=C/C(=O)O)[C@@H](O)[C@H](C)[C@@H](O)/C(C)=C/[C@H](C)C(=O)CCCC1CC(=O)NC(=O)C1", "groupLabel": "false"}

Okay, now this compound:
In this assay, the call recorded for CCCCC[C@@H]1OC(=O)[C@@H](C)N(C)C(=O)[C@H](CCCCC)OC(=O)C(C)N(C)C(=O)[C@H](CCCCC)OC(=O)[C@@H](C)N(C)C(=O)[C@H](CCCCC)OC(=O)C(C)N(C)C1=O (some centres not stated) was what? true
